These measurements were taken from patent US8962793B2.

Below is a list of entries, each paired with its recorded Percent Inhibition ErbB3 value.
- ASSAY_SYSTEM: erbB3-erbB3 homomerization (Homo sapiens, UniProt P21860)
- Construct: the ectodomains of erbB receptors were immobilized on the surface chip; erbB3: gift of Dr. Mark A. Lemmon
- Sequence (P21860 20-643 limits assumed): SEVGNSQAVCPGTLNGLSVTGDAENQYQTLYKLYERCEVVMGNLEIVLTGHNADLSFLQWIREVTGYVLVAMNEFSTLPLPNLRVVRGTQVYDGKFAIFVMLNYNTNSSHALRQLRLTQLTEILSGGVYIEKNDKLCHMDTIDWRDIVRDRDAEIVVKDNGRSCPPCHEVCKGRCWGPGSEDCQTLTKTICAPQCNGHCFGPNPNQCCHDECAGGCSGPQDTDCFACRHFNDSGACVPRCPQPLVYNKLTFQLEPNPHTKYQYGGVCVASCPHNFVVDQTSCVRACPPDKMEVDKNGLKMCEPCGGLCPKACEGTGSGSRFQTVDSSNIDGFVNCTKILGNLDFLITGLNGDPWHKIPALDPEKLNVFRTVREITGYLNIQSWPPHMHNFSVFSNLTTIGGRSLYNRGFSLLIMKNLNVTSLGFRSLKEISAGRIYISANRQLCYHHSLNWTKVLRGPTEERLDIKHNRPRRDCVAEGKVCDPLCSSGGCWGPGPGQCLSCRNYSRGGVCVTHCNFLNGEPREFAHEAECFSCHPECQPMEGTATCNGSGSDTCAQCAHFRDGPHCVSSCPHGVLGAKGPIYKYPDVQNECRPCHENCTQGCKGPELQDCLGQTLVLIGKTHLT
- TEST_METHOD_NOTES: SPR inhibition of HRGβ1-induced binding of ErbB3 to immobilized ErbB3
- CONDITION_PARAMETERS: peptide 10 μm, ErbB3 300 nm, HRGβ1 5 μM
Bridge positions count the residues as written; N and C are the ends. Peptide text beside a SMILES is read from it.
Field format: number, assumed %, no unit text.

Asked: What does the data say about its Percent Inhibition ErbB3? Entry: CC[C@H](C)[C@@H]1NC(=O)[C@H](Cc2ccc(O)cc2)NC(=O)[C@@H](NC(=O)[C@@H](N)Cc2ccccc2)CSSC[C@@H](C(=O)N[C@@H](Cc2ccc(O)cc2)C(N)=O)NC(=O)[C@H](CCC(N)=O)NC(=O)[C@H](CC(=O)O)NC(=O)[C@H](CCC(=O)O)NC(=O)[C@H](C(C)C)NC(=O)[C@H](CCC(=O)O)NC(=O)CNC1=O [CD4-G, reference compound] (H-FCYIGEVEDQCY-NH2; disulfide 2-11)
Given back: 3.1

Asked: What does the data say about its Percent Inhibition ErbB3? Entry: C[C@@H]1NC(=O)CNC(=O)[C@H](CCC(=O)O)NC(=O)[C@H](CCC(=O)O)NC(=O)[C@H](CC(=O)O)NC(=O)[C@@H]2CCCN2C(=O)[C@H](Cc2ccccc2)NC(=O)[C@@H](NC(=O)[C@@H](N)Cc2ccc(O)cc2)CSSC[C@@H](C(=O)N[C@@H](Cc2ccc(O)cc2)C(N)=O)NC1=O [B2-S22-AFA, YCFPDEEGACY] (H-YCFPDEEGACY-NH2; disulfide 2-10)
Given back: 61.7

Asked: What does the data say about its Percent Inhibition ErbB3? Entry: CC[C@H](C)[C@@H]1NC(=O)[C@@H]2CCCN2C(=O)[C@@H](NC(=O)[C@@H](N)Cc2ccc(O)cc2)CSSC[C@@H](C(=O)N[C@@H](Cc2ccc(O)cc2)C(N)=O)NC(=O)[C@H](CCC(=O)O)NC(=O)[C@H](CCC(=O)O)NC(=O)[C@H](CC(=O)O)NC(=O)[C@@H]2CCCN2C(=O)[C@H](Cc2ccccc2)NC(=O)[C@H](CCCCN)NC(=O)[C@H](Cc2c[nH]c3ccccc23)NC1=O [B2-S22-APE] (H-YCPIWKFPDEECY-NH2; disulfide 2-12)
Given back: 42.7

Please find the next compound below.
Asked: What does the data say about its Percent Inhibition ErbB3? Entry: CC[C@H](C)[C@@H]1NC(=O)[C@H](Cc2ccccc2)NC(=O)[C@@H](NC(=O)[C@@H](N)Cc2ccc(O)cc2)CSSC[C@@H](C(=O)N[C@@H](Cc2ccc(O)cc2)C(N)=O)NC(=O)[C@H](CC(=O)O)NC(=O)[C@@H]2CCCN2C(=O)[C@H](CC(=O)O)NC(=O)[C@H](C)NC(=O)[C@H](Cc2ccc(O)cc2)NC(=O)[C@H](CCCCN)NC(=O)[C@H](Cc2ccccc2)NC1=O [B4-S22-AFD] (H-YCFIFKYADPDCY-NH2; disulfide 2-12)
Given back: 72.8
